Ref: paper PMC12040169

METHOD DESCRIPTION: in vitro
CONDITIONS: human, hela cells, % viability
MEASURED ENDPOINT: viability at 28.5 h, 10 µM (%)
Answer with a number only, understood to be in %.

Lookup: Tell me the measured viability at 28.5 h, 10 µM of `Cc1cc(CN2CCN(C(=O)NCCc3ccccn3)CC2)on1` , please.
Found: 80

Lookup: Try this compound too: `COc1ccc(CN2CCN(c3ccccn3)CC2)cc1OCc1ccccc1`
Found: 84.9

Lookup: Try this compound too: O=C(NC1CCCOC1)c1cnn(-c2ccc(F)cc2)c1 (centres unmarked)
Found: 89.4

Lookup: Try this compound too: `O=C(Cn1ncn2c(cc3ccsc32)c1=O)NCc1cccs1`
Found: 90.3

Lookup: Try this compound too: N=C1OC2CSCC2N1C(=O)Cc1c(F)cccc1Cl (centres unmarked)
Found: 84.9

Lookup: Try this compound too: `CN(C)Cc1ccc(C(=O)NCC(C)(C)N2CCCCC2)cc1`
Found: 104

Lookup: Try this compound too: `Nc1nc(N)c2nc(C3OCCO3)cnc2n1`
Found: 114

Lookup: Try this compound too: CCn1ncc(S(=O)(=O)N2CCCC(c3ccccc3)C2)c1C (centres unmarked)
Found: 100

Lookup: Try this compound too: O=C(NCc1cccnc1)N1CCCCC1CO (centres unmarked)
Found: 105

Lookup: Try this compound too: O=C(C[n+]1ccc(CCSCc2ccc3c4c(cccc24)CC3)cc1)c1ccc2c3c(cccc13)CC2 [CBK260881B]
Found: 96.4

Lookup: Try this compound too: Cc1nc(C2CC(O)C2)cc(N2CCC(C(=O)N3CCOCC3)CC2)n1 (centres unmarked)
Found: 102

Lookup: Try this compound too: `O=C(O)c1cccc(-c2nc(-c3ccc(S(=O)(=O)N4CCOCC4)cc3)cs2)c1`
Found: 85.8

Lookup: Try this compound too: `O=C(NCCCc1ccc(F)cc1)c1cccc(-n2cnnc2)c1`
Found: 102

Lookup: Try this compound too: CC(Oc1ccc(Br)cc1)C(=O)Nc1ccc(C(N)=O)cc1 (centres unmarked)
Found: 112

Lookup: Try this compound too: `Cc1ccccc1NC(=O)c1cnn2cccnc12`
Found: 90.3

Lookup: Try this compound too: `CCN(CC)C(=O)Cc1cc(C(=O)O)c2ccccc2n1`
Found: 104

Lookup: Try this compound too: N=C1NC(=O)C(CC(=O)Nc2cccc([N+](=O)[O-])c2)S1 (centres unmarked)
Found: 87.9

Lookup: Try this compound too: `Cc1csc2ncc(C(=O)NCc3ccccc3)c(=O)n12`
Found: 89.3

Lookup: Try this compound too: `O=C(NCCc1c[nH]cn1)c1ccccc1-n1cccc1`
Found: 92.4

Lookup: Try this compound too: `Cc1ccccc1Nc1nc(N)nc(CN(CCC#N)CC2CCC2)n1`
Found: 89.3

---

Exercise: for every item that follows, state its recorded viability at 28.5 h, 10 µM.
METHOD DESCRIPTION: in vitro
CONDITIONS: human, hela cells, % viability
Answer with a number only, understood to be in %.

Lookup: Tell me the measured viability at 28.5 h, 10 µM of `O=C(Cn1cnc2ccccc2c1=O)Nc1cccc(-c2cnc3ccccc3n2)c1` , please.
Found: 83.7

Lookup: Try this compound too: `CSCCN1CCN(c2nccnc2OCCN2C(=O)CCC2=O)CC1`
Found: 105

Lookup: Try this compound too: `CC(C)c1ccc(S(=O)(=O)Nc2cccnc2)cc1`
Found: 97.9

Lookup: Try this compound too: `CC(=O)Oc1cc(Cl)ccc1C(=O)Nc1nnc(C(F)(F)F)s1`
Found: 84

Lookup: Try this compound too: `c1ccc(N2CCN(c3cncc(-c4ccc5ccccc5c4)n3)CC2)nc1`
Found: 100

Lookup: Try this compound too: `OCc1nc(-c2cccnc2)co1`
Found: 106

Lookup: Try this compound too: `CS(=O)(=O)N(Cc1ccccc1)c1ccc(C(=O)Nc2ccccc2C(=O)O)cc1`
Found: 108

Lookup: Try this compound too: `O=C(NCCc1cnc[nH]1)NC1CCCCC1`
Found: 100

Lookup: Try this compound too: Cc1cc(C)n(CC(=O)NC2CCCOc3c(F)cccc32)n1 (centres unmarked)
Found: 106

Lookup: Try this compound too: `CCC(=O)Nc1ccc(-c2csc(N3CCC(C)CC3)n2)cc1`
Found: 111

Lookup: Try this compound too: `O=C(CCc1ccncc1)N1CCC(c2cc3ncccc3[nH]2)CC1`
Found: 84.3

Lookup: Try this compound too: `N#CCCN(Cc1ccco1)C(=O)c1ccc(NC2CC2)nc1`
Found: 88.2

Lookup: Try this compound too: CC(NC(=O)C1CCN(Cc2nccs2)CC1)c1ccc(F)cc1 (centres unmarked)
Found: 102

Lookup: Try this compound too: `O=c1[nH]c2ccccc2n1C1CCN(S(=O)(=O)c2ccc(OC(F)(F)F)cc2)CC1`
Found: 93.8

Lookup: Try this compound too: `CC(=O)Nc1cccc(-c2cnc(Nc3ccc(N4CCOCC4)cc3)c3nccn23)c1`
Found: 99.9

Lookup: Try this compound too: CC(CCCC(C)(C)O)CC1OCCC(C)O1 (centres unmarked)
Found: 115

Lookup: Try this compound too: `COCOc1ccc(-c2nc(-c3cnc(OC)nc3OC)cnc2N)cc1`
Found: 91.9

Lookup: Try this compound too: `Cc1ccc(NC2=N[C@H]3[C@@H](O)[C@H](O)C[C@H](C(=O)N4CCCCC4)[C@H]3S2)cc1`
Found: 94.7

Lookup: Try this compound too: `O=c1[nH]cnc2c1ncn2[C@H]1C[C@@H](O)[C@@H](CO)O1`
Found: 99.5

Lookup: Try this compound too: `Cc1nc2ccccc2n1CC(=O)N(CCC#N)Cc1ccco1`
Found: 86.1
